Provide the reported EC50 of each item.
target_of_assay: human α7 nAChR stably expressed in a HEK cell line (with human RIC-3) (Homo sapiens, UniProt P36544)
Construct: PrecisION hnAChR α7/RIC-3
Sequence (P36544 23-502): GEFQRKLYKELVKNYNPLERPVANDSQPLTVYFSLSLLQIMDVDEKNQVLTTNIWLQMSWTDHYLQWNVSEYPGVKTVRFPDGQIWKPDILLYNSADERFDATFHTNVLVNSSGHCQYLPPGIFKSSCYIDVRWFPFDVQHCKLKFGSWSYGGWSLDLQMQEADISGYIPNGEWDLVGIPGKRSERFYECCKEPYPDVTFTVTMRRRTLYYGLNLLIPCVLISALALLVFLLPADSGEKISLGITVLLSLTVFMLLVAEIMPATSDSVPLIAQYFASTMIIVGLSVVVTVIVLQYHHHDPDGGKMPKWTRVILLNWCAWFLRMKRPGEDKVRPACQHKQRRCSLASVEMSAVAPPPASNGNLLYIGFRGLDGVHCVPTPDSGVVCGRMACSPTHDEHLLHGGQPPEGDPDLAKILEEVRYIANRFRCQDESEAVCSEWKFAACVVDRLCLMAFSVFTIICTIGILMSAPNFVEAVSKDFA
protocol_text: Automated patch-clamp electrophysiology functional assay (Assay A), IonFlux HT, whole-cell population patch
Format: cell-based
conditions: automated patch-clamp electrophysiology functional assay (Assay A); potency class by EC50; read-out: α7 nAChR Potency

# count of solved cases: 3
# compound, quantity, readout_value
rows = [
    ("CC1(C)[C@@H](c2ccc(S(N)(=O)=O)cc2)[C@@H]1c1nc(C2CCCC2)no1 [Example D20]", "EC50", "≤ 100 nM"),
    ("CC(C)(C)c1noc([C@H]2[C@H](c3ccc(S(N)(=O)=O)cc3)C2(C)C)n1 [Example D10]", "EC50", "100 to 500 nM"),
    ("CC1(C)[C@@H](c2ccc(S(N)(=O)=O)cc2)[C@@H]1c1ncc(-c2ccccc2)s1 [Example 17]", "EC50", "500 to 5000 nM"),
]

For each entry beneath this line, provide reported EC50.
1. NS(=O)(=O)c1ccc(C2C(c3ncc(-c4ccccc4)o3)C2(F)F)cc1 (racemic) [Example M1]
2. CC1(C)[C@@H](c2ccc(S(N)(=O)=O)cc2)[C@@H]1c1cn(-c2ccccc2)nn1 [Example L7]
3. CC1(C)C(c2ccc(S(N)(=O)=O)cc2)C1c1cc(C2CCCC2)on1 (stereo not shown) [Example 34]
4. NS(=O)(=O)c1ccc([C@@H]2C[C@H]2c2nc(-c3ccccc3F)no2)cc1 [Example C20]
5. NS(=O)(=O)c1ccc([C@@H]2C[C@H]2c2nc(C3CCCCC3)no2)cc1 [Example D8]
6. CC1(C)[C@@H](c2ccc(S(N)(=O)=O)cc2)[C@@H]1c1noc(C2CN(C(=O)C3CC3)C2)n1 [Example I23]

["500 to 5000 nM", "500 to 5000 nM", "100 to 500 nM", "100 to 500 nM", "100 to 500 nM", "500 to 5000 nM"]

For each entry beneath this line, provide reported EC50.
1. NS(=O)(=O)c1ccc([C@@H]2C[C@H]2c2csc(-c3ccccc3)n2)cc1 [Example 25]
2. Cc1ncccc1-c1noc([C@H]2C[C@@H]2c2ccc(S(N)(=O)=O)cc2)n1 [Example B6]
3. CC1(C)[C@@H](c2ccc(S(N)(=O)=O)cc2)[C@@H]1c1noc(C2CCc3cc(F)ccc32)n1 (stereo partly shown) [Example I3]
4. Cc1sc([C@@H]2C[C@H]2c2ccc(S(N)(=O)=O)cc2)nc1-c1ccccc1 [Example 15]
5. CC1(C)[C@@H](c2ccc(S(N)(=O)=O)cc2)[C@@H]1c1noc(-c2ccc(F)c(OC(F)(F)F)c2)n1 [Example H4]
6. NS(=O)(=O)c1ccc([C@@H]2C[C@H]2c2noc(C3(C(F)(F)F)CC3)n2)cc1 [Example I35]

500 to 5000 nM
5000 to 50000 nM
≤ 100 nM
≤ 100 nM
500 to 5000 nM
500 to 5000 nM

I would be grateful if you could share the reported EC50 for CC1(C)[C@H](c2ccc(S(N)(=O)=O)cc2)[C@H]1c1nc(-c2cncc(C(F)(F)F)c2)no1 [Example B7] .
500 to 5000 nM

----------
Provide the reported pEC50 of each item.
target_of_assay: human α7 nAChR stably expressed in a HEK cell line (with human RIC-3) (Homo sapiens, UniProt P36544)
Construct: PrecisION hnAChR α7/RIC-3
protocol_text: Automated patch-clamp electrophysiology functional assay (Assay A), IonFlux HT, whole-cell population patch
Assay type: cell-based
conditions: electrophysiology EC50, HEK cells expressing human α7/RIC-3, 40 μM acetylcholine, holding potential −60 mV, room temperature; read-out: α7 nAChR EC50
One number for each entry, as −log10 of the molar value.

# count of solved cases: 3
# compound, pEC50
data = [
    ("CC1(C)[C@H](c2ccc(S(N)(=O)=O)cc2)[C@H]1c1nc(C2CCC2)no1", 5.06),
    ("Cc1noc([C@H]2[C@H](c3ccc(S(N)(=O)=O)cc3)C2(C)C)n1", 5.22),
    ("CC(C)c1cnc([C@H]2[C@H](c3ccc(S(N)(=O)=O)cc3)C2(C)C)s1", 6.41),
]

For each entry beneath this line, provide reported pEC50.
1. CC1(C)[C@@H](c2ccc(S(C)(=O)=O)cc2)[C@@H]1c1nc(-c2ccccc2)no1 (relative stereo)
2. NS(=O)(=O)c1ccc([C@@H]2C[C@H]2c2nc(-c3cc(F)ccc3C(F)(F)F)no2)cc1
3. CC1(C)[C@H](c2ccc(S(N)(=O)=O)cc2)[C@H]1c1nc(C2CCCC2)no1

[5.96, 6.30, 6.00]

For each entry beneath this line, provide reported pEC50.
1. CC1(C)[C@H](c2ccc(S(N)(=O)=O)cc2)[C@H]1c1nc(-c2ccc(F)cc2F)co1
2. CC1(C)[C@@H](c2ccc(S(N)(=O)=O)cc2)[C@@H]1c1noc(-c2ccc(C#N)cc2)n1
3. NS(=O)(=O)c1ccc([C@@H]2C[C@H]2c2nc(-c3cccc(F)c3F)no2)cc1
4. CC1(C)[C@@H](c2ccc(S(N)(=O)=O)cc2)[C@@H]1c1nnc(-c2ccccc2)s1

6.14
5.92
6.47
5.74

For each entry beneath this line, provide reported pEC50.
1. CC1(C)C(c2ccc(S(N)(=O)=O)cc2)C1c1cc(-c2cccc(F)c2)on1 (racemic)
2. CC(C)Oc1ccc(Cl)cc1-c1noc([C@H]2[C@H](c3ccc(S(N)(=O)=O)cc3)C2(C)C)n1
3. CC(C)(C)c1coc([C@H]2[C@H](c3ccc(S(N)(=O)=O)cc3)C2(C)C)n1
4. CC(F)(F)c1nc([C@H]2[C@H](c3ccc(S(N)(=O)=O)cc3)C2(C)C)no1
5. NS(=O)(=O)c1ccc([C@@H]2C[C@H]2c2noc(C3(C(F)(F)F)CC3)n2)cc1
6. CC1(C)[C@H](c2ccc(S(N)(=O)=O)cc2)[C@H]1c1cn(-c2ccccc2)nn1

5.54
5.21
6.21
6.46
6.16
6.04

----------
target_of_assay: human α7 nAChR stably expressed in a HEK cell line (with human RIC-3) (Homo sapiens)
Construct: PrecisION hnAChR α7/RIC-3
protocol_text: Automated patch-clamp electrophysiology functional assay (Assay A), IonFlux HT, whole-cell population patch
Type: cell-based
conditions: electrophysiology EC50, HEK cells expressing human α7/RIC-3, 40 μM acetylcholine, holding potential −60 mV, room temperature; read-out: α7 nAChR EC50
Method: The α7 nAChR positive allosteric modulator (PAM) activity of the present compounds may be tested using assays known in the art. […] The compounds were assessed for their ability to modulate the function of the human α7 nAChR stably expressed in a HEK cell line both in the presence, and in the absence of the natural α7 agonist acetylcholine. By performing a series of such measurements at different concentrations, the effective concentration of the α7 nAChR PAMs (EC50) was determined. […]
quantity: EC50 (nM)
One number for each entry, in nM.

# count of solved cases: 3
# compound, display_unit, readout_value
records = [
    ("CC(=O)N1CCC(c2noc([C@@H]3[C@@H](c4ccc(S(N)(=O)=O)cc4)C3(C)C)n2)CC1", "nM", 2200),
    ("CC1(C)[C@@H](c2ccc(S(N)(=O)=O)cc2)[C@@H]1c1nnc(C2CCCC2)s1", "nM", 920),
    ("CC1(C)[C@@H](c2ccc(S(N)(=O)=O)cc2)[C@@H]1c1nc(-c2ccccn2)no1", "nM", 6800),
]

I would be grateful if you could share the reported EC50 for CC1(C)C(c2ccc(OS(N)(=O)=O)cc2)C1c1nc(-c2ccccc2)no1 (stereo not shown) .
1400

----------
target_of_assay: human α7 nAChR stably expressed in a HEK cell line (with human RIC-3) (Homo sapiens, UniProt P36544)
Construct: PrecisION hnAChR α7/RIC-3
protocol_text: Automated patch-clamp electrophysiology functional assay (Assay A), IonFlux HT, whole-cell population patch
Format: cell-based
conditions: electrophysiology EC50, HEK cells expressing human α7/RIC-3, 40 μM acetylcholine, holding potential −60 mV, room temperature; read-out: α7 nAChR EC50
Classify: satisfied when EC50 is strictly less than 800 nM; not satisfied when EC50 is not.

# molecular_string, category_label
measured = [
    ("CC1(C)[C@H](c2ccc(S(N)(=O)=O)cc2)[C@H]1c1nnc(-c2ccccc2)s1", "satisfied"),
    ("CC1(C)[C@H](c2ccc(S(N)(=O)=O)cc2)[C@H]1c1nc(-c2ccc(F)cc2F)no1", "not satisfied"),
    ("CC(C)c1noc([C@@H]2[C@@H](c3ccc(S(N)(=O)=O)cc3)C2(C)C)n1", "not satisfied"),
    ("NS(=O)(=O)c1ccc([C@H]2C[C@@H]2c2nc(-c3ccccc3)no2)cc1", "not satisfied"),
    ("CC1(C)[C@@H](c2ccc(S(N)(=O)=O)cc2)[C@@H]1c1noc(-c2cc3sccc3[nH]2)n1", "not satisfied"),
    ("Cc1ncoc1-c1nc([C@H]2[C@H](c3ccc(S(N)(=O)=O)cc3)C2(C)C)no1", "satisfied"),
    ("CC1(C)[C@@H](c2ccc(S(N)(=O)=O)cc2)[C@@H]1c1noc(C2CC2)n1", "satisfied"),
    ("Cc1nc([C@@H]2C[C@H]2c2ccc(S(N)(=O)=O)cc2)sc1-c1ccccc1", "satisfied"),
    ("CC1(C)[C@H](c2ccc(S(N)(=O)=O)cc2)[C@H]1c1nnc(-c2ccc(F)cc2F)s1", "satisfied"),
    ("CC1(C)[C@@H](c2ccc(S(N)(=O)=O)cc2)[C@@H]1c1noc(-c2cccc(C3CC3)c2)n1", "not satisfied"),
]

State whether 800 nM exceeds EC50 recorded for CC1(C)[C@@H](c2ccc(S(N)(=O)=O)cc2)[C@@H]1c1nnc(-c2c(F)cccc2C(F)(F)F)o1 .
not satisfied

Now this one: CC1(C)[C@H](c2ccc(S(N)(=O)=O)cc2)[C@H]1c1nc(-c2cncc(C(F)(F)F)c2)no1
not satisfied

Now this one: CC1(C)[C@@H](c2ccc(S(N)(=O)=O)cc2)[C@@H]1c1noc(C2CCCC2)n1
satisfied

Now this one: CC1(C)[C@@H](c2ccc(S(N)(=O)=O)cc2)[C@@H]1c1noc(-c2c(F)cc(F)cc2F)n1
satisfied
